- System: Ctenocephalides felis
- ASSAY PROCEDURE: Ctenocephalides felis-test (CTECFE)
- Type: in vivo
- PARTICULARS: application rate of 100 ppm in cattle blood; adult unfed fleas; after 2 days
Can you tell me activity (mortality) for the items I'm about to list?
Answers are plain numbers, in %.

// below: answered compounds
INSERT INTO measurements (compound, system, readout_type, readout_value) VALUES
  ('N#Cc1ccc2cc(C(=O)Nc3c(Br)cc(C4(F)C(F)(F)C(F)(F)C(F)(F)C(F)(F)C4(F)F)cc3Br)ccc2n1', 'Ctenocephalides felis', 'activity (mortality)', 90),
  ('CCc1cc(C(F)(C(F)(F)F)C(F)(F)C(F)(F)F)cc(C)c1NC(=O)c1ccc2ncccc2c1 (centres unmarked)', 'Ctenocephalides felis', 'activity (mortality)', 95),
  ('N#Cc1ccc2cc(C(=O)Nc3c(Br)cc(C(F)(F)F)cc3Br)ccc2n1', 'Ctenocephalides felis', 'activity (mortality)', 90);

Report activity (mortality) for every entry below.
1. CCc1cc(C(F)(C(F)(F)F)C(F)(F)F)cc(Br)c1NC(=O)c1ccc2nc(C#N)ccc2c1
2. Cc1cc(C(F)(C(F)(F)F)C(F)(F)F)cc(Br)c1NC(=O)c1ccc2nc(C#N)ccc2c1

A.
1: 95; 2: 95

----------
- Test system: Ctenocephalides felis
- ASSAY PROCEDURE: Ctenocephalides felis-test (CTECFE)
- Format: in vivo
- PARTICULARS: Ctenocephalides felis, in Bos taurus, 48 h, read-out: activity (mortality), application rate of 100 ppm in cattle blood; adult unfed fleas; after 2 days
Can you tell me mortality at 100 ppm for the items I'm about to list?
Give bare numbers, in %.

// below: answered molecules
INSERT INTO measurements (molecule, readout_type, readout_value) VALUES
  ('N#Cc1ccc2cc(C(=O)Nc3c(Br)cc(C(F)(C(F)(F)F)C(F)(F)Br)cc3OC(F)F)ccc2n1 (stereo not drawn) [Compound No. 2-203]', 'mortality at 100 ppm', 100),
  ('Cc1cc(C(F)(C(F)(F)F)C(F)(F)F)cc(C)c1NC(=O)c1ccc2nc(C#N)ccc2c1 [Compound No. 2-20]', 'mortality at 100 ppm', 100),
  ('O=C(Nc1c(Br)cc(C(F)(C(F)(F)F)C(F)(F)Br)cc1OC(F)F)c1ccc2ncccc2c1 (stereo not drawn) [Compound No. 2-201]', 'mortality at 100 ppm', 100),
  ('N#Cc1ccc2cc(C(=O)Nc3c(I)cc(C(F)(C(F)(F)F)C(F)(F)C(F)(F)F)cc3OC(F)F)ccc2n1 (stereo not drawn) [Compound No. 2-176]', 'mortality at 100 ppm', 90);

Report mortality at 100 ppm for every entry below.
1. O=C(Nc1c(I)cc(C(F)(C(F)(F)F)C(F)(F)C(F)(F)F)cc1OC(F)F)c1ccc2ncccc2c1 (stereo not drawn) [Compound No. 2-174]
2. O=C(Nc1c(Br)cc(C(F)(C(F)(F)F)C(F)(F)Br)cc1OC(F)F)c1ccc2c(ccc[n+]2[O-])c1 (stereo not drawn) [Compound No. 2-202]

A.
1: 100; 2: 95

----------
- System: Aulacophora femoralis
- ASSAY PROCEDURE: Test against cucurbit leaf beetle (Aulacophora femoralis), leaf dip
- Format: in vivo
- PARTICULARS: active compound concentration of 500 ppm; second instar larvae on cucumber leaves; after 7 days
READOUT TYPE: insecticidal activity (%)
Give bare numbers, in %.

INSERT INTO results (compound, readout_type, unit_name, readout_value) VALUES
  ('N#Cc1ccc2cc(C(=O)Nc3c(Br)cc(OC(F)(F)F)cc3Br)ccc2n1', 'insecticidal activity', '%', 100),
  ('N#Cc1ccc2cc(C(=O)Nc3c(I)cc(C(F)(C(F)(F)F)C(F)(F)F)cc3I)ccc2n1', 'insecticidal activity', '%', 100),
  ('O=C(Nc1c(I)cc(C(F)(C(F)(F)F)C(F)(F)F)cc1I)c1ccc2c(ccc[n+]2[O-])c1', 'insecticidal activity', '%', 100);

Report insecticidal activity for every entry below.
1. O=C(Nc1c(Cl)cc(C(F)(C(F)(F)F)C(F)(F)F)cc1Cl)c1ccc2ncccc2c1
2. CCc1cc(C(F)(C(F)(F)F)C(F)(F)C(F)(F)F)cc(C)c1NC(=O)c1ccc2ncccc2c1 (stereo not shown)

A.
100
100

Report insecticidal activity for every entry below.
1. CCc1cc(C(F)(C(F)(F)F)C(F)(F)Br)cc(C)c1NC(=O)c1ccc2ncccc2c1 (stereo not shown)
2. N#Cc1ccc2cc(C(=O)Nc3c(I)cc(C(F)(C(F)(F)F)C(F)(F)C(F)(F)F)cc3I)ccc2n1 (stereo not shown)
3. O=C(Nc1c(I)cc(C(F)(C(F)(F)F)C(F)(F)C(F)(F)F)cc1I)c1ccc2c(ccc[n+]2[O-])c1 (stereo not shown)
4. N#Cc1ccc2cc(C(=O)Nc3c(Br)cc(C(F)(C(F)(F)F)C(F)(F)C(F)(F)F)cc3Br)ccc2n1 (stereo not shown)
5. N#Cc1ccc2cc(C(=O)Nc3c(Br)cc(SC(F)(F)F)cc3Br)ccc2n1
6. CCc1cc(C(n2cc(Cl)cn2)(C(F)(F)F)C(F)(F)F)cc(C)c1NC(=O)c1ccc2nc(C#N)ccc2c1
7. CCc1cc(C(F)(C(F)(F)F)C(F)(F)C(F)(F)F)cc(C)c1NC(=O)c1ccc2nc(C#N)ccc2c1 (stereo not shown)
8. Cc1cc(C(F)(C(F)(F)F)C(F)(F)F)cc(Br)c1NC(=O)c1ccc2nc(C#N)ccc2c1

A.
1. 100
2. 100
3. 100
4. 100
5. 100
6. 100
7. 100
8. 100

Report insecticidal activity for every entry below.
1. N#Cc1ccc2cc(C(=O)Nc3c(Cl)cc(C(F)(C(F)(F)F)C(F)(F)C(F)(F)F)cc3OC(F)F)ccc2n1 (stereo not shown)
2. CCc1cc(C(F)(C(F)(F)F)C(F)(F)Br)cc(C)c1NC(=O)c1ccc2nc(C#N)ccc2c1 (stereo not shown)
3. N#Cc1ccc2cc(C(=O)Nc3c(I)cc(C(F)(C(F)(F)F)C(F)(F)Br)cc3I)ccc2n1 (stereo not shown)
4. Cc1cc(C(F)(C(F)(F)F)C(F)(F)F)cc(C(C)C)c1NC(=O)c1ccc2nc(C#N)ccc2c1
5. Cc1cc(C(F)(C(F)(F)F)C(F)(F)C(F)(F)F)cc(C)c1NC(=O)c1ccc2nc(C#N)ccc2c1 (stereo not shown)

A.
100
100
100
100
100

Report insecticidal activity for every entry below.
1. N#Cc1ccc2cc(C(=O)Nc3c(Br)cc(C(F)(C(F)(F)F)C(F)(F)F)cc3C(F)(F)F)ccc2n1
2. CCc1cc(C(F)(C(F)(F)F)C(F)(F)F)cc(Br)c1NC(=O)c1ccc2nc(C#N)ccc2c1
3. O=C(Nc1c(I)cc(C(F)(C(F)(F)F)C(F)(F)Br)cc1I)c1ccc2c(ccc[n+]2[O-])c1 (stereo not shown)
4. N#Cc1ccc2cc(C(=O)Nc3c(I)cc(C(F)(C(F)(F)F)C(F)(F)C(F)(F)F)cc3SC(F)(F)F)ccc2n1 (stereo not shown)
5. Cc1cc(C(F)(C(F)(F)F)C(F)(F)F)cc(OC(F)F)c1NC(=O)c1ccc2nc(C#N)ccc2c1
6. CCc1cc(C(F)(C(F)(F)F)C(F)(F)C(F)(F)F)cc(C)c1NC(=O)c1ccc2ncsc2c1 (stereo not shown)
7. N#Cc1ccc2cc(C(=O)Nc3c(Br)cc(C(F)(C(F)(F)F)C(F)(F)F)cc3Br)ccc2n1
8. N#Cc1ccc2cc(C(=O)Nc3c(Br)cc(C(F)(C(F)(F)F)C(F)(F)C(F)(F)F)cc3SC(F)(F)F)ccc2n1 (stereo not shown)

A.
1. 100
2. 100
3. 100
4. 100
5. 100
6. 100
7. 100
8. 100

----------
Can you tell me mortality at 100 ppm for the items I'm about to list?
- Test system: Musca domestica
- ASSAY PROCEDURE: Musca domestica-test
- Type: in vivo
- PARTICULARS: Musca domestica, 48 h, read-out: activity (mortality)

// below: answered compounds
INSERT INTO measurements (compound, readout_value) VALUES
  ('N#Cc1ccc2cc(C(=O)Nc3c(Br)cc(C(F)(C(F)(F)F)C(F)(F)Br)cc3OC(F)F)ccc2n1 (stereo not shown) [Compound No. 2-203]', '100%'),
  ('O=C(Nc1c(Br)cc(C(F)(C(F)(F)F)C(F)(F)Br)cc1OC(F)F)c1ccc2c(ccc[n+]2[O-])c1 (stereo not shown) [Compound No. 2-202]', '100%'),
  ('O=C(Nc1c(Br)cc(C(F)(C(F)(F)F)C(F)(F)Br)cc1OC(F)F)c1ccc2ncccc2c1 (stereo not shown) [Compound No. 2-201]', '100%');

Report mortality at 100 ppm for every entry below.
1. N#Cc1ccc2cc(C(=O)Nc3c(I)cc(C(F)(C(F)(F)F)C(F)(F)C(F)(F)F)cc3OC(F)F)ccc2n1 (stereo not shown) [Compound No. 2-176]
2. Cc1cc(C(F)(C(F)(F)F)C(F)(F)F)cc(C)c1NC(=O)c1ccc2ncc(Cl)cc2c1 [Compound No. 2-213]
3. O=C(Nc1c(I)cc(C(F)(C(F)(F)F)C(F)(F)C(F)(F)F)cc1OC(F)F)c1ccc2ncccc2c1 (stereo not shown) [Compound No. 2-174]

A.
1: 100%; 2: 80%; 3: 100%

Entry under test: Cc1cc(C(F)(C(F)(F)F)C(F)(F)F)cc(C)c1NC(=O)c1ccc2nc(C#N)ccc2c1 [Compound No. 2-20] . Its mortality at 100 ppm was 95%
